Each entry below carries its reported CC50 at 48 h.
Assay: HEK293 cytotoxicity, resazurin cell viability assay
Format: cell-based
Details: human, HEK293 cells, means ± SD, n = 3

Recorded results for 3 compounds are shown here.
CC#Cc1ccc2c(C=O)c(O)ccc2c1 [Compound 12]; ~100 µM
O=Cc1c(O)ccc2cc(Cl)ccc12 [Compound 8]; ~100 µM
O=Cc1c(O)ccc2ccccc12 [Compound 1, 2-hydroxy-1-naphthaldehyde]; ~100 µM

Can you look up the measured CC50 at 48 h of CN(C)c1ccc2c(C=O)c(O)ccc2c1 [Compound 11] for me?
> 100 µM

Can you share its CC50 at 48 h? I mean this compound: O=Cc1c(O)ccc2cc(OC(F)F)ccc12 [Compound 10]
> 100 µM

All values here come from paper PMC10644391.
